// provenance: paper PMC5540273

Tested on: TNK1;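 also: KINOMEscan kinase panel screen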
studyConditions: concentration: 1 μM, replicates: in singlicate; n = 1
testReadout: %Inh (%)

compound=Cc1cccc(-c2nc(-c3ccc(S(C)(=O)=O)cc3)sc2-c2ccnc(NCCc3ccccc3)c2)c1 unitofmeasurement=% endpointvalue=0
compound=Cn1ccc2ncnc(Oc3ccc(Nc4nc5ccccc5[nH]4)cc3)c21 unitofmeasurement=% endpointvalue=0
compound="COc1ccccc1-c1ccc2c(NC(=O)C3CC3)n[nH]c2n1 [SB-711239]" unitofmeasurement=% endpointvalue=4
compound="Cc1cc(-c2ccc3c(c2)CC[C@@H](N[C@@H](C)c2ccccc2)C3)cnc1N.Cl [GW412617]" unitofmeasurement=% endpointvalue=0
